Would you kindly list % inhibition at 10 nM for each of these binders?
Target entity: human plasma kallikrein (human, UniProt P03952 20-390; P03952 391-638)
Sequence (P03952 20-390, chain 1 of 2): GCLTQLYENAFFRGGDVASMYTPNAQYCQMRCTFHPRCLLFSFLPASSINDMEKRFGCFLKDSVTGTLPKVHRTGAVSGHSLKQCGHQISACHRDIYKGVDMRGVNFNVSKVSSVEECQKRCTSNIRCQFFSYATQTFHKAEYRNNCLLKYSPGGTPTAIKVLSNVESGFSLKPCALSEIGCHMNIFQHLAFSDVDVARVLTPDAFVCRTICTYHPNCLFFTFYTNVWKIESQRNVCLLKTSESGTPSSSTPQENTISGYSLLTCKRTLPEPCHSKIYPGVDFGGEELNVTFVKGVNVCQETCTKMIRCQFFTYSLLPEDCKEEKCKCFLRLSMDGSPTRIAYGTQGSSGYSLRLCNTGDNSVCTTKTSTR
Sequence (P03952 391-638, chain 2 of 2): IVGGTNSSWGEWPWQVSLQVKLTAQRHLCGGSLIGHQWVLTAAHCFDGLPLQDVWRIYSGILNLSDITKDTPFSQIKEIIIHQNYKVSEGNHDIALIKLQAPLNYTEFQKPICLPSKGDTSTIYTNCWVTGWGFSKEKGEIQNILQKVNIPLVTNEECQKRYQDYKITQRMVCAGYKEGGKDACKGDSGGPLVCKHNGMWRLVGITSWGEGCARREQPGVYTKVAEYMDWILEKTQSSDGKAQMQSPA
Experiment notes: cell-based or functional assay
Lab note: write values as number then unit, every time.

May I ask what % inhibition at 10 nM has been recorded for M198-H02 (Fab, V domains shown) VH: EVQLLESGGGLVQPGGSLRLSCAASGFTFSPYNMYWVRQAPGKGLEWVSWIVPGGVTKYADSVKGRFTISRDNSKNTLYLQMNSLRAEDTAVYYCAYRRTGIPRRDAFDIWGQGTMVTVSS VL: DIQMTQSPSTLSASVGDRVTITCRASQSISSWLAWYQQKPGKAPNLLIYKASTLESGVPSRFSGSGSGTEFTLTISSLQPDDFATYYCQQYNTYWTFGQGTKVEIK ?
85.8%

Next entry: M198-A02 (Fab, V domains shown) VH: EVQLLESGGGLVQPGGSLRLSCAASGFTFSRYSMIWVRQAPGKGLEWVSSIWSSGGATEYADSVKGRFTISRDNSKNTLYLQMNSLRAEDTAVYYCAYRRTGIPRRDAFDIWGQGTMVTVSS VL: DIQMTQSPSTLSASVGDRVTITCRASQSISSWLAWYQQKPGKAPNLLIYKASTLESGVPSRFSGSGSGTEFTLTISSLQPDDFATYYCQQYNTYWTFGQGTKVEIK
89.1%

Next entry: M200-H07 (Fab, V domains shown) VH: EVQLLESGGGLVQPGGSLRLSCAASGFTFSHYIMMWVRQAPGKGLEWVSGIYSSGGITVYADSVKGRFTISRDNSKNTLYLQMNSLRAEDTAVYYCAYRRTGVPRRNAFDNWGQGTMVTVSS VL: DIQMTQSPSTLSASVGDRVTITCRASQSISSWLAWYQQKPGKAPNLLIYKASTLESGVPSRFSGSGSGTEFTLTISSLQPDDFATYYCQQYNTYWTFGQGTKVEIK
85.4%

Data credit: patent US9266964
